Origin of measurements: ChEMBL document CHEMBL4513216

System: Plasmodium berghei
Experiment: Screen against P. berghei liver stage (PbLuc), transformed with Luciferase, at 10uM
Assay type: functional, HepG2
Settings: tested at 10 uM
Out of some 69,000 compounds screened, about 8,600 (12%) showed an effect of 50% or more. What follows is part of a selection rich in strong results, with near analogues and random picks from the rest.
quantity_kind: INHIBITION

>>> df
                                    compound       target_system  quantity_kind   result
 0  NS(=O)(=O)c1cccc(CNc2nccc(C(F)(F)F)n2)c1  Plasmodium berghei     INHIBITION   -14.6%
 1     O=C(c1ccc(N2CCCCCC2)nn1)N1CCc2ccccc21  Plasmodium berghei     INHIBITION     -30%
 2      c1cc(COC[C@@H]2CCC[C@@]23CNCCO3)ccn1  Plasmodium berghei     INHIBITION    68.2%
 3  N#CC(NC(=O)CCCOc1cccnc1)c1ccc(F)cc1F (centres undefined)  Plasmodium berghei     INHIBITION    66.9%
 4    FC(F)(F)c1cccc(CNc2nccc(C(F)(F)F)n2)c1  Plasmodium berghei     INHIBITION   -24.2%
 5  N#CC(NC(=O)CCCOc1cccnc1)c1ccccc1Cl (centres undefined)  Plasmodium berghei     INHIBITION    40.9%
 6              CC(=O)c1c(O)n(C)c2ccc(C)cc12  Plasmodium berghei     INHIBITION   -10.5%
 7  CN(C)CCO[C@H]1CN(Cc2cccc(C#N)c2)[C@@H]2COC[C@H]12  Plasmodium berghei     INHIBITION   -46.9%
 8  CC(C)NC(=O)[C@@H]1CC[C@@H]2[C@@H](CCN2Cc2cn(C)c3ccccc23)O1  Plasmodium berghei     INHIBITION    65.1%
 9  Cc1nc(CN2CCOC(Cn3cccn3)C2)nc2ccccc12 (centres undefined)  Plasmodium berghei     INHIBITION   -31.8%
10       c1cncc(OC[C@@H]2CCC[C@@]23CNCCO3)c1  Plasmodium berghei     INHIBITION   -2.27%
11         CNC(=O)CCN(C)CC1(c2ccc(Br)cc2)CC1  Plasmodium berghei     INHIBITION  -0.532%
12  CC(CN1CCCC1=O)NC(=O)NCc1ccccc1-n1cccn1 (centres undefined)  Plasmodium berghei     INHIBITION    48.6%
13  CNS(=O)(=O)c1cccc(CNc2nccc(C(F)(F)F)n2)c1  Plasmodium berghei     INHIBITION    71.3%
14  O=C(COc1coc(CN2CCCC2)cc1=O)Nc1cc(Cl)ccc1Cl  Plasmodium berghei     INHIBITION   -12.5%
15  COc1ccc(OC)c(C(O)CNC(=O)Nc2cccnc2OC)c1 (centres undefined)  Plasmodium berghei     INHIBITION    17.4%
16  Cc1ccccc1C(C#N)NC(=O)CCCOc1cccnc1 (centres undefined)  Plasmodium berghei     INHIBITION    31.2%
17       c1cncc(COC[C@@H]2CCC[C@]23CNCCO3)c1  Plasmodium berghei     INHIBITION    22.2%
18  CNC(=O)[C@@H]1CC[C@@H]2[C@@H](CCN2Cc2cn(C)c3ccccc23)O1  Plasmodium berghei     INHIBITION   -20.1%
19     CCCn1nc(C)c(-c2cncn2CCN(C)C2CCCC2)c1C  Plasmodium berghei     INHIBITION  -0.232%
20  CNS(=O)(=O)c1cccc(CNc2cc(C(F)(F)F)ccn2)c1  Plasmodium berghei     INHIBITION    45.4%
21                 CCc1noc(CNCCn2cc(C)cn2)n1  Plasmodium berghei     INHIBITION   -9.37%
22  Cc1nn(C)c2nc(-c3ccccn3)nc(NCCCOC(C)C)c12  Plasmodium berghei     INHIBITION    5.46%
23  CCC1=NC(SCC(=O)c2ccc(OC)cc2)c2cc(CC)sc2N1 (centres undefined)  Plasmodium berghei     INHIBITION    36.6%

* * *

A collection of molecules and their measured INHIBITION
System: Plasmodium berghei
Assay: Screen against P. berghei liver stage (PbLuc), transformed with Luciferase, at 10uM
Format: functional, HepG2
Conditions: tested at 10 uM
In all, about 69,000 compounds went through this assay and about 8,600 (12%) showed an effect of 50% or more. For the sample, strong results were picked, then their nearest neighbours and some compounds at random.
quantity_kind: INHIBITION (%)

                                   molecule       target_system  quantity_kind  readout_number
0  CCc1nc(C2CCCN(C(=O)CC3CCOCC3)C2)no1 (stereo not given)  Plasmodium berghei     INHIBITION           -2.19
1  Cc1ncsc1CN1C[C@H]2OCC[C@H]2[C@H](C(=O)NCC2CC2)C1  Plasmodium berghei     INHIBITION            34.4
2  CCc1nc(C2CCCN(C(=O)c3ccccc3O)C2)no1 (stereo not given)  Plasmodium berghei     INHIBITION            37.9
3         CSCc1cccc(S(=O)(=O)N2CCC(C)CC2)c1  Plasmodium berghei     INHIBITION            32.4
4  CN1CCN(S(=O)(=O)c2cccc(S(=O)(=O)C3CCS(=O)(=O)C3)c2)CC1 (stereo not given)  Plasmodium berghei     INHIBITION            46.7
5  O=S1(=O)CCC(S(=O)(=O)c2cccc(S(=O)(=O)N3CCCCCC3)c2)C1 (stereo not given)  Plasmodium berghei     INHIBITION            50.2
6  O=C(NC1CCCC1)[C@@H]1CN(Cc2nccs2)C[C@H]2OCC[C@H]21  Plasmodium berghei     INHIBITION            32.4
7  CC(C)NC(=O)[C@@H]1CN(Cc2nccs2)C[C@H]2OCC[C@H]21  Plasmodium berghei     INHIBITION            71.1
8  CC1=CCN(S(=O)(=O)c2cccc(C(=O)N3CCOCC3)c2)CC1  Plasmodium berghei     INHIBITION            37.1
9  Cc1ncsc1CN1C[C@H](C(=O)NC2CCCC2)[C@@H]2CCO[C@@H]2C1  Plasmodium berghei     INHIBITION              52

* * *

A collection of compounds and their measured INHIBITION
System: Plasmodium berghei
Test: Screen against P. berghei liver stage (PbLuc), transformed with Luciferase, at 10uM
Type: functional, HepG2
Settings: tested at 10 uM
Out of some 69,000 compounds screened, about 8,600 (12%) showed an effect of 50% or more. The sample as a whole holds a higher share of strong results than the screen did.
quantity_kind: INHIBITION (%)

>>> print(df.to_string())
                                    compound  readout_number
 0    Cc1ncc(CN2CCC(c3ccnn3C)CC2)n1-c1ccccc1            77.2
 1  COc1ccc(NC(=O)C2OC(c3cccs3)=NN2C(C)=O)cc1OC (stereo unspecified)            14.5
 2  Cc1cc(C(=O)N2CCC3(C2)CN(c2ccsc2)C(=O)CN3C)[nH]n1 (stereo unspecified)            46.2
 3     Cn1nccc1C1CCN(Cc2csc(-c3ncccn3)n2)CC1            11.1
 4  CN(C)C(c1ccccn1)C1CCC(CNC(=O)C2CCCC2)CC1 (stereo unspecified)            14.6
 5  Cn1nccc1C1CCN(CC(O)c2cccc(F)c2)CC1 (stereo unspecified)            20.9
 6  c1ccc(-n2ccc(CN3CCOC(Cn4cncn4)C3)n2)cc1 (stereo unspecified)            7.08
 7  COCCC(=O)N1CCCC(CCC(=O)NCc2ccccc2F)C1 (stereo unspecified)           -4.12
 8  CNC(=O)c1cc(NC(=O)Nc2cnn(CC(C)C)c2)ccc1F            1.56
 9    O=C(O)c1ccccc1CN1CCC(c2ccnc3ccnn23)CC1           -9.32
10       CCC(C)(C)NC(=O)Cn1nc(C)nc1-c1ccccc1           -31.5

* * *

Tested on: Plasmodium berghei
Test: Screen against P. berghei liver stage (PbLuc), transformed with Luciferase, at 10uM
Format: functional, HepG2
Conditions: tested at 10 uM
Hit rate of the full screen: of about 69,000 compounds, about 8,600 (12%) showed an effect of 50% or more. The list comes from a sample in which strong results are over-represented; it also holds close analogues and randomly drawn compounds.
A collection of molecules and their measured INHIBITION
quantity_kind: INHIBITION (%)

>>> df
                                    molecule  quantity_kind  measurement_unit  readout_number
 0  COc1cccc(CNC(=O)c2nc3c(s2)CCN(C(C)=O)CC3)c1     INHIBITION                 %            10.1
 1  COc1cccc(CC(=O)N2CCc3nc(C(N)=O)sc3CC2)c1     INHIBITION                 %           -16.9
 2  CNC(=O)N1CCc2nc(C(=O)NCc3cccc(OC)c3)sc2CC1     INHIBITION                 %            70.7
 3  Cc1csc(CCNC(=O)N2CCC(NC(=O)OC(C)(C)C)CC2)n1     INHIBITION                 %            13.3
 4  CC(C)CNC(=O)c1nc2c(s1)CCN(C(=O)c1cccnc1)CC2     INHIBITION                 %           -47.5
 5  CNC(=O)c1nc2c(s1)CCN(C(=O)c1cccc(OC)c1)CC2     INHIBITION                 %             -78
 6    COCCCN(Cc1cnc(C2CCCCC2)nc1)C1CCN(C)CC1     INHIBITION                 %            49.4
 7       COc1cccc(CN2CCc3nc(C(N)=O)sc3CC2)c1     INHIBITION                 %            2.41
 8  Cn1ccn2ncc(C(=O)NCc3cccnc3N3CCCC(O)C3)c12 (stereo unspecified)     INHIBITION                 %            28.8
 9  Cc1nc(CN2CC[C@@H](OCC3CC3)[C@@H]2Cc2cccnc2)cs1     INHIBITION                 %            10.5
10  Cc1cccc(CS(=O)(=O)c2nnc([C@@H](N)Cc3ccccc3)o2)c1     INHIBITION                 %            23.1
